Entries annotated with measured Kd
Molecular target: Abl SH3 Domäne (Homo sapiens)
Sequence (P00519 61-121 limits assumed): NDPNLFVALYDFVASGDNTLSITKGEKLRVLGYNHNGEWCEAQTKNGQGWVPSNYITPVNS
Assay: Fluorescence titration (intrinsic tryptophan fluorescence), binding constant
Details: Abl SH3 domain; fluorescence titration, 0,5 µM SH3 domain in PBS, 1mM DDT; each experiment done twice
Where no end group is shown, it is not given here.
QUANTITY_KIND: Kd

INSERT INTO assay_data (sequence_input, meas_value) VALUES
  ('HSKRPLPPLPSL [PD1-R]', '> 300 µM'),
  ('HSKYPLPPLPSL [PD1]', '> 300 µM');

---

Below, each entry is listed alongside its reported pKd.
Target: PI3K SH3 Domäne (Homo sapiens)
Sequence (P27986 3-79 limits assumed): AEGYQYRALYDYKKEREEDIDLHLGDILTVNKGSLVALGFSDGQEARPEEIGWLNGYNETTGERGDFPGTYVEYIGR
Assay: Fluorescence titration (intrinsic tryptophan fluorescence), binding constant
Conditions: PI3K SH3 domain; fluorescence titration, 0,5 µM SH3 domain in PBS, 1mM DDT; each experiment done twice
pKd: −log10 of the molar value. Where no end group is shown, it is not given here.
QUANTITY_KIND: pKd

INSERT INTO assay_data (sequence_input, meas_value) VALUES
  ('HSKYPLPPLPSL [PD1]', 3.95),
  ('HSKRPLPPLPSL [PD1-R]', 4.88);
